Cited source: PubChem BioAssay (NCI)

System: SNB-19 CNS
test-method-notes: NCI tumour cell line growth inhibition, 48 h
parameter: GI50

Find the recorded GI50 belonging to COc1ccc(-c2conc2-c2ccccc2)cc1 and report it.
0.647 µM

Find the recorded GI50 belonging to CCn1c(-c2nonc2N)nc2c(C#CC(C)(C)O)ncc(OC[C@@H]3CCCN3)c21 and report it.
4.28 µM

Find the recorded GI50 belonging to CC(C)c1ccc2c(c1)c(SC(C)(C)C)c(CC(C)(C)C(=O)O)n2Cc1ccc(Cl)cc1 and report it.
8.45 µM

Find the recorded GI50 belonging to Cc1ccc2c(C(C[N+](=O)[O-])c3ccco3)c(-c3ccccc3)[nH]c2c1 (stereo unspecified) and report it.
59 µM

Find the recorded GI50 belonging to CNc1ccc(N=Nc2cccc3ncccc23)cc1 and report it.
> 80.6 µM

Find the recorded GI50 belonging to NC(=O)c1c(NC(=O)c2cccc(C(F)(F)F)c2)sc2c1CCC(=O)C2 and report it.
0.432 µM

* * *

Kindly state TGI for each of the entries shown.
System: NCI-H23 lung
test-method-notes: NCI tumour cell line growth inhibition, 48 h

Find the recorded TGI belonging to CC1CCc2sc3[nH]c(=S)n(C)c(=O)c3c2C1 (stereo not given) and report it.
> 100 µM

Find the recorded TGI belonging to Nc1cc2nc(-c3ccccc3)cn2cn1 and report it.
> 100 µM

Find the recorded TGI belonging to Cc1ccc2c(C(C[N+](=O)[O-])c3ccco3)c(-c3ccccc3)[nH]c2c1 (stereo not given) and report it.
> 100 µM

Find the recorded TGI belonging to Fc1cccc(F)c1C1SCc2nc3cc(Cl)ccc3n21 (stereo not given) and report it.
> 100 µM

Find the recorded TGI belonging to Oc1ccc(C[C@@H]2CN[C@H](Cc3ccc(O)c(Br)c3)CN2)cc1 and report it.
> 100 µM

Find the recorded TGI belonging to Cc1cc([C@H](C)Nc2nccc(N3C(=O)OC[C@@H]3[C@H](C)F)n2)ncc1-c1ccnc(C(F)(F)F)c1 and report it.
> 100 µM

Find the recorded TGI belonging to O=C1Cc2ccccc2CCc2ccccc21 and report it.
> 100 µM

Find the recorded TGI belonging to C=CCN(N=O)C(=O)ON1C(=O)CCC1=O and report it.
> 100 µM

Find the recorded TGI belonging to CCOC(=O)OC1(c2ccccc2)CCN(C)CC1 and report it.
> 100 µM

Find the recorded TGI belonging to COc1cccc(Nc2nc3c([nH]2)c(=O)n(C)c(=O)n3C)c1 and report it.
> 10 µM

* * *

Test system: SF-268 CNS
test-method-notes: NCI tumour cell line growth inhibition, 48 h
parameter: TGI

Find the recorded TGI belonging to C/C(N=NC(=S)N1CCCCCC1)=C1\C=CC=CN1O and report it.
> 100 µM

Find the recorded TGI belonging to CCn1c(-c2nonc2N)nc2c(C#CC(C)(C)O)ncc(OC[C@@H]3CCCN3)c21 and report it.
> 25 µM

Find the recorded TGI belonging to O=C(Nc1cccc(Cl)c1)c1cc(Cl)ccc1O and report it.
> 40.3 µM

Find the recorded TGI belonging to Cc1ccc2c(C(C[N+](=O)[O-])c3ccco3)c(-c3ccccc3)[nH]c2c1 (stereo unspecified) and report it.
> 100 µM

Find the recorded TGI belonging to O=C1OC(c2ccc(Cl)c3ccccc23)c2ccccc21 (stereo unspecified) and report it.
> 100 µM

Find the recorded TGI belonging to O=c1cccc2n1CC1CNCC2C1 (stereo unspecified) and report it.
> 100 µM

* * *

Kindly state GI50 for each of the entries shown.
Test system: HCC-2998 colon
test-method-notes: NCI tumour cell line growth inhibition, 48 h

Find the recorded GI50 belonging to COc1cccc(C2CC(=O)Nc3cc4c(cc32)CCC4)c1OC (stereo unspecified) and report it.
7.56 µM

Find the recorded GI50 belonging to COc1ccc(-c2cn(-c3cc(OC)c(OC)c(OC)c3)c(=O)n2-c2ccccc2)cc1 and report it.
> 100 µM

Find the recorded GI50 belonging to CCOC(=O)/N=c1\ssc(Cl)c1Cl and report it.
2.83 µM

Find the recorded GI50 belonging to CNc1ccc(N=Nc2cccc3ncccc23)cc1 and report it.
33.5 µM

Find the recorded GI50 belonging to COc1cc(-c2nn3c(=O)n(-c4ccc(Cl)cc4)c(=O)nc3s2)cc(OC)c1OC and report it.
> 50 µM

Find the recorded GI50 belonging to COc1ccc(CNC(=O)c2ccc(-c3cc(-c4nnc(C)o4)ccc3C)cc2)cc1 and report it.
> 25 µM

Find the recorded GI50 belonging to CC(C)c1ccc2c(c1)c(SC(C)(C)C)c(CC(C)(C)C(=O)O)n2Cc1ccc(Cl)cc1 and report it.
7.71 µM

Find the recorded GI50 belonging to Cc1nc2cc(Nc3nc(Nc4ccc(F)cc4)nc(-c4ccc(Cl)cc4)n3)ccc2n1Cc1ccccc1 and report it.
6.36 µM

Find the recorded GI50 belonging to CCc1ccc(OCc2ccccc2C(=O)Nc2ccc3nc(C)cc(N)c3c2)cc1 and report it.
1.64 µM

Find the recorded GI50 belonging to O=C(Nc1cccc(Cl)c1)c1cc(Cl)ccc1O and report it.
2.94 µM

Find the recorded GI50 belonging to O=C(CCl)Nc1ccc(C(=O)N/N=C/c2ccc(Cl)cc2)cc1 and report it.
3.85 µM

* * *

System: DMS 273 small cell lung
test-method-notes: NCI tumour cell line growth inhibition, 48 h
parameter: TGI

Find the recorded TGI belonging to O=C1Cc2ccccc2CCc2ccccc21 and report it.
> 100 µM

Find the recorded TGI belonging to COC(=O)Cc1cc(=O)oc2c1C(=O)CCC2 and report it.
> 100 µM

Find the recorded TGI belonging to CC(C)(C)c1cc(C(=O)O)c(C(c2ccccc2)c2ccccc2C(=O)O)c(C(=O)O)c1 (stereo not given) and report it.
> 100 µM

Find the recorded TGI belonging to COC(=O)C1=C(C(=O)OC)N(C(C)C)[C@H]2C(C(=O)OC)=C(C(=O)OC)N(C(C)C)[C@@H]12 and report it.
> 100 µM

Find the recorded TGI belonging to O=C1[C@H]2ON(c3ccccc3)C(c3cccc([N+](=O)[O-])c3)[C@H]2C(=O)N1c1ccc(Cc2ccc(N3C(=O)[C@@H]4ON(c5ccccc5)C(c5cccc([N+](=O)[O-])c5)[C@@H]4C3=O)cc2)cc1 (stereo not given in full) and report it.
> 100 µM

* * *

Kindly state TGI for each of the entries shown.
Test system: SNB-75 CNS
test-method-notes: NCI tumour cell line growth inhibition, 48 h

Find the recorded TGI belonging to C[C@@H](CCO)OC1OC(COC(=O)C(C)(C)C)C(OC(=O)C(C)(C)C)C(OC(=O)C(C)(C)C)C1OC(=O)C(C)(C)C (stereo partly drawn) and report it.
> 100 µM

Find the recorded TGI belonging to CCc1nc2c([nH]1)C(=O)c1ccccc1C2=O and report it.
> 100 µM

Find the recorded TGI belonging to Cc1cc([C@H](C)Nc2nccc(N3C(=O)OC[C@@H]3[C@H](C)F)n2)ncc1-c1ccnc(C(F)(F)F)c1 and report it.
> 100 µM

* * *

System: IGROV1 ovarian
test-method-notes: NCI tumour cell line growth inhibition, 48 h
Kindly state TGI for each of the entries shown.

Find the recorded TGI belonging to COc1cc2c3cc1Oc1cc(ccc1O)C[C@@H]1c4c(cc(OC)c(O)c4Oc4ccc(cc4)C[C@@H]3[N+](C)(C)CC2)CC[N+]1(C)C and report it.
> 100 µM

Find the recorded TGI belonging to CC1=[N+]([O-])C2(CCCC2)N(O)C1(C)C and report it.
> 100 µM

Find the recorded TGI belonging to CC(C)(C)[Si](C)(C)OC1CCOC1(O)c1ccccn1 (configuration not stated) and report it.
> 100 µM

Find the recorded TGI belonging to N#Cc1ccnc(C(=O)N2CCCC2C(=O)O)c1 (configuration not stated) and report it.
> 100 µM

Find the recorded TGI belonging to COc1cc(/C=C2/C(=O)N(C(=O)c3ccccc3O)N=C2C)ccc1O and report it.
2.06 µM

Find the recorded TGI belonging to NCCn1c2c(c3ccccc3c1=O)C(=O)c1ccccc1-2 and report it.
> 45.8 µM

Find the recorded TGI belonging to Cc1cc(C)c2nccc(NCCCN(C)C)c2c1[N+](=O)[O-] and report it.
92.3 µM

Find the recorded TGI belonging to Cc1cc(S(N)(=O)=O)c(S/C(=N\NS(=O)(=O)c2ccccc2)c2ccc(Cl)c(Cl)c2)cc1Cl and report it.
> 100 µM

Find the recorded TGI belonging to O=C1c2cccnc2C(=O)c2c1nc1ccccc1c2-c1ccc2c3c(nc4ccccc42)C(=O)c2cccnc2-c13 and report it.
1.39 µM

Find the recorded TGI belonging to COc1ccc2c(c1)CCC(CN1CCN(CCOC(c3ccccc3)c3ccccc3)CC1)C2O (configuration not stated) and report it.
30.1 µM

Find the recorded TGI belonging to COc1cc2c(c(OC)c1OC)-c1ccc(SC)c(=O)cc1[C@@H](NC(=O)c1ccc(F)cc1)CC2 and report it.
> 100 µM

Find the recorded TGI belonging to C=CCN(c1cc(OC)c2[nH]c(C(=O)O)c(C)c2c1[N+](=O)[O-])S(C)(=O)=O and report it.
> 100 µM

Find the recorded TGI belonging to O=C(O)Cn1c[n+](NC(=O)Cc2ccccc2)cn1 and report it.
> 10 µM

Find the recorded TGI belonging to COc1ccc(-c2nn3ncccc3c2-c2ccnc(Nc3cccc(C(F)(F)F)c3)n2)cc1 and report it.
> 20.2 µM

Find the recorded TGI belonging to Cc1cc(Nc2cc(N3CCN(C)CC3)nc(C#Cc3ccccc3)n2)n[nH]1 and report it.
6.05 µM

Find the recorded TGI belonging to CCOc1ccccc1NC(=O)CCC(=O)NN and report it.
> 100 µM

Find the recorded TGI belonging to Cc1ccc2nc(Nc3ccccc3C)c(Nc3ccccc3C)nc2c1 and report it.
> 100 µM
